# Tested on: HEK293-EGFP-eIF2a cells
# ASSAY NAME: PERK Cellular Assay (TR-FRET, GFP-eIF2α, tunicamycin-induced ER stress)
# Format: cell-based, human
# TEST PARAMETERS: Homo sapiens, 2 h, HEK293-EGFP-eIF2a cells, tunicamycin 2 hours, TR-FRET; read-out: Cellular eIF2α IC50
A collection of compounds and their measured IC50

Some solved entries appear below for comparison.
COMPOUND: Cc1cccc(CC(=O)N2CCc3c2ccc(-c2nc(C)n4c(C)cnc(N)c24)c3F)n1
SYSTEM TESTED: HEK293-EGFP-eIF2a cells
IC50: 0.026 to 0.05 µM
--
COMPOUND: Cc1cccc(CC(=O)N2CCc3c2ccc(-c2cnc(N)c(C(=O)NC(C)C)c2)c3F)n1
SYSTEM TESTED: HEK293-EGFP-eIF2a cells
IC50: 0.501 to 1 µM
--
COMPOUND: Cn1cc(-c2ccc3c(c2F)CCN3C(=O)C(N)c2ccccc2)c2c(N)ncnc21 (single isomer, unassigned)
SYSTEM TESTED: HEK293-EGFP-eIF2a cells
IC50: 0.051 to 0.1 µM
--
COMPOUND: Cc1cccc(CC(=O)N2CCc3c2ccc(-c2nc(C)n4ccnc(N)c24)c3F)n1
SYSTEM TESTED: HEK293-EGFP-eIF2a cells
IC50: 0.026 to 0.05 µM
--
COMPOUND: Cc1nc(N)c2c(-c3ccc4c(c3F)CCN4C(=O)C(O)c3cccc(F)c3)cn(C)c2n1 (racemic)
SYSTEM TESTED: HEK293-EGFP-eIF2a cells
IC50: 0.051 to 0.1 µM
--
COMPOUND: Cc1cccc(CC(=O)N2CCc3c2ccc(-c2nc(C)n4c(C)c(C)nc(N)c24)c3F)n1
SYSTEM TESTED: HEK293-EGFP-eIF2a cells
IC50: 0.251 to 0.5 µM

Next, consider the following compound.
Req: What IC50 value was documented for this compound, Cc1cccc(C(O)C(=O)N2CCc3c2ccc(-c2nc(C4CC(C)(O)C4)n4cc(C)nc(N)c24)c3F)n1 (single isomer, unassigned) ?
Resp: > 5 µM
